Assay: Solubility in pure water
Format: physicochemical
Settings: pure water, molar
Where a name gives a salt, the structure may show the parent alone.
parameter_measured: solubility (µM)
Note: unit µM is implicit; provide only the numeric part.

Solved entries:
compound	solubility, µM
COCc1c(C)oc2c(C)c3oc(=O)cc(C)c3cc12	37
Cc1oc2c(C)c3oc(=O)cc(C)c3cc2c1CN [hydrochloride]	34000
Cc1cc2cc3c(C)cc(=O)oc3c(C)c2o1 [trioxsalen, 4,5',8-trimethyl psoralen, reference compound]	2.6

Turning to the following compound.
Q: Item under review: Cc1oc2c(C)c3oc(=O)cc(C)c3cc2c1CO . Reported solubility?
Ans: 160
